assay: self-splicing fitness, log relative to wild type (ln ratio); higher = more splicing; Tetrahymena group I intron in knt gene, E. coli kanamycin selection, DiMSum; sequences stand for … in CUCUCU…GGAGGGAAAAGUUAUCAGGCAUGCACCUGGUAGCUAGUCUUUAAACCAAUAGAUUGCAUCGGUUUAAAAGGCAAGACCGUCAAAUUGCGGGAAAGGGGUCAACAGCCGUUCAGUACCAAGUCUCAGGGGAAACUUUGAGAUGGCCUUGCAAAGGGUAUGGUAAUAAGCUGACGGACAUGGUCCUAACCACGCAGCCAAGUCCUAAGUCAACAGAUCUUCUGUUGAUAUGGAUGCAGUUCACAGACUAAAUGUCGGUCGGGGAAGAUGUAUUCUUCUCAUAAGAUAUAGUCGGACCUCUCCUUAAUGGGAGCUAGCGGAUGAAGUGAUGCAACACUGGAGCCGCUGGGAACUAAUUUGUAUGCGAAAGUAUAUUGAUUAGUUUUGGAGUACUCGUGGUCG; conditions: 30 °C;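 further: selection with 25 µg/mL kanamycin versus none on LB agar overnight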
Record Fulfilled whenever self-splicing fitness (ln) is at -2 or higher; record Not fulfilled when lower.

| seq | assigned label |
| --- | --- |
| UUUUAGCAAUAUUACGUAUU | Not fulfilled |
| GCUUAGCAAUAUUACGUUAC | Not fulfilled |
| GAACAGCAAUAUUACGCGAA | Fulfilled |
| GAGCAGCAAUAUUACGAAGA | Not fulfilled |
| GCUUAGCAAUAUUACGAAUU | Fulfilled |

Given UGGUAGCAAUAUUACGAUAU , state whether its self-splicing fitness (ln) is at least -2.
Not fulfilled

Given CACCAGCAAUAUUACGCGAC , state whether its self-splicing fitness (ln) is at least -2.
Not fulfilled

Given UCUCAGCAAUAUUACGGACU , state whether its self-splicing fitness (ln) is at least -2.
Fulfilled

Given UUACAGCAAUAUUACGAGAU , state whether its self-splicing fitness (ln) is at least -2.
Not fulfilled

Given GUCUAGCAAUAUUACGAUGA , state whether its self-splicing fitness (ln) is at least -2.
Fulfilled

Given GUGCAGCAAUAUUACGGUUG , state whether its self-splicing fitness (ln) is at least -2.
Not fulfilled

###

assay: self-splicing fitness, log relative to wild type (ln ratio); higher = more splicing; Tetrahymena group I intron in knt gene, E. coli kanamycin selection, DiMSum; sequences stand for … in CUCUCU…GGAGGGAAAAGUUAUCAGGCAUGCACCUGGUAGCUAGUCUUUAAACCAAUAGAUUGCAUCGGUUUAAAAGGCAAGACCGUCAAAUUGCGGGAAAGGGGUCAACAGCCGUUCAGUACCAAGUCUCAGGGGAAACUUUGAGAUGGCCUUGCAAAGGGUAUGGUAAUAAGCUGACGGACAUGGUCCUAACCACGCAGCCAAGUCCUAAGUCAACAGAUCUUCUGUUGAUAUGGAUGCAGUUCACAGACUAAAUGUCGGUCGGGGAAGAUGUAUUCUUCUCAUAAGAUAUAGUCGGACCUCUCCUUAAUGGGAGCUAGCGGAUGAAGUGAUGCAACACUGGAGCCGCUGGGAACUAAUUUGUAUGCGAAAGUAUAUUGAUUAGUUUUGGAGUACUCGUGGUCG; settings: 30 °C
recorded endpoint: self-splicing fitness (ln)
Please state the value as a number alone, without comment.

Below are worked cases with known answers.
| seq | experimental value |
| --- | --- |
| UGCCAGCAAUAUUACGGCGU | -3.04 |
| UAUCAGCAAUAUUACGAUAC | -3.07 |

// self-splicing fitness (ln) lookup, key: UCACAGCAAUAUUACGUCAU
-3.09

###

assay: self-splicing fitness, log relative to wild type (ln ratio); higher = more splicing; Tetrahymena group I intron in knt gene, E. coli kanamycin selection, DiMSum; sequences stand for … in CUCUCU…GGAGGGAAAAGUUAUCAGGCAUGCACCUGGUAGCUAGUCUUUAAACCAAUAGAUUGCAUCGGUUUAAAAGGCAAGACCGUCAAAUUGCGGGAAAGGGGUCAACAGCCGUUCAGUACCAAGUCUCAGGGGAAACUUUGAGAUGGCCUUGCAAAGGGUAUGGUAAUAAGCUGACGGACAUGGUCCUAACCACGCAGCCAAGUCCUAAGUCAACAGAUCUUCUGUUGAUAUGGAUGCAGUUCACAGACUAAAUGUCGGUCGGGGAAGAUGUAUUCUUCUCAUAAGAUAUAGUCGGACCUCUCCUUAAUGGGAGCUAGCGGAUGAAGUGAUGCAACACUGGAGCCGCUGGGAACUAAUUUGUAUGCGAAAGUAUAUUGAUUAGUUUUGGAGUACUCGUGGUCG; conditions: 30 °C
recorded endpoint: self-splicing fitness (ln)

Below are worked cases with known answers.
| seq | recorded endpoint | experimental value |
| --- | --- | --- |
| UGCCAGCAAUAUUACGAGGU | self-splicing fitness (ln) | -3.06 |
| CACGAGCAAUAUUACGCGAA | self-splicing fitness (ln) | -2.93 |

// self-splicing fitness (ln) lookup, key: GGUUAGCAAUAUUACGAAGC
-0.991

###

assay: self-splicing fitness, log relative to wild type (ln ratio); higher = more splicing; Tetrahymena group I intron in knt gene, E. coli kanamycin selection, DiMSum; sequences stand for … in CUCUCU…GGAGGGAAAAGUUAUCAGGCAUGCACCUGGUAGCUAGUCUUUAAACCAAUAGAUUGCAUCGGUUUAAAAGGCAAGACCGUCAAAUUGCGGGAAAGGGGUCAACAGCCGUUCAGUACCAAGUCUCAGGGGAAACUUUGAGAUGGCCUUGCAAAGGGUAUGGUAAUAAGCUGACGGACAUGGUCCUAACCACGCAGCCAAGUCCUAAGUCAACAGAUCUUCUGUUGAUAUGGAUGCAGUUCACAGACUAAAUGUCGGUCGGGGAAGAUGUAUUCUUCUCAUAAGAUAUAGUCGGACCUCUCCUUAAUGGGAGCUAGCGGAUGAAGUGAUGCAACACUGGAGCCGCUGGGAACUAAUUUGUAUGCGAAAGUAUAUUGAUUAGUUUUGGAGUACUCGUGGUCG; settings: 30 °C
Record rule met whenever self-splicing fitness (ln) is at -3 or higher; record rule not met when lower.

| seq | assigned label |
| --- | --- |
| ACAUAGCAAUAUUACGUUGU | rule not met |
| CCAGAGCAAUAUUACGCGGU | rule not met |
| CUUUAGCAAUAUUACGUCUU | rule not met |
| UUGAAGCAAUAUUACGACCC | rule not met |
| GUCCAGCAAUAUUACGAUAU | rule met |
| GCGAAGCAAUAUUACGAAUU | rule met |
| CGUUAGCAAUAUUACGCACG | rule met |
| UAACAGCAAUAUUACGGCUA | rule met |
| UGUCAGCAAUAUUACGGCCA | rule met |
| GGGGAGCAAUAUUACGUCAA | rule met |

Given GACUAGCAAUAUUACGUCAU , state whether its self-splicing fitness (ln) is at least -3.
rule met

Given ACAAAGCAAUAUUACGGACA , state whether its self-splicing fitness (ln) is at least -3.
rule met

Given GUCGAGCAAUAUUACGGAAA , state whether its self-splicing fitness (ln) is at least -3.
rule met

Given CACCAGCAAUAUUACGAGUG , state whether its self-splicing fitness (ln) is at least -3.
rule not met

Given UUAGAGCAAUAUUACGCGGU , state whether its self-splicing fitness (ln) is at least -3.
rule met

Given AUAAAGCAAUAUUACGCCAU , state whether its self-splicing fitness (ln) is at least -3.
rule met

Given UGCUAGCAAUAUUACGCUAA , state whether its self-splicing fitness (ln) is at least -3.
rule met

###

test: self-splicing fitness, log relative to wild type (ln ratio); higher = more splicing; Tetrahymena group I intron in knt gene, E. coli kanamycin selection, DiMSum; sequences stand for … in CUCUCU…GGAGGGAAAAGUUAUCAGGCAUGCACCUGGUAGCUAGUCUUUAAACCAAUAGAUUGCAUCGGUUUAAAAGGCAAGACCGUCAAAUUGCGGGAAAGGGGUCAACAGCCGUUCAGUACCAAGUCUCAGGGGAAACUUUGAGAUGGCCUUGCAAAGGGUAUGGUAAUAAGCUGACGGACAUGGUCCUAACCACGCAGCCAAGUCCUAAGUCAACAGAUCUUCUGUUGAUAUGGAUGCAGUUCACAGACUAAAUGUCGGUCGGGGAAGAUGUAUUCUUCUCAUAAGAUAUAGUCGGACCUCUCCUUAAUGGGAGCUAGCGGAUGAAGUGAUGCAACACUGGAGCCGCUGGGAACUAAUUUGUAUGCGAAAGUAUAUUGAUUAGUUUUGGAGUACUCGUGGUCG; conditions: 37 °C
Record Condition met whenever self-splicing fitness (ln) is at -1 or higher; record Condition not met when lower.

| seq | assigned label |
| --- | --- |
| UGCAAGCAAUAUUACGCAGU | Condition not met |

Given GGAAAGCAAUAUUACGCGUA , state whether its self-splicing fitness (ln) is at least -1.
Condition not met

Given GGGAAGCAAUAUUACGGCGG , state whether its self-splicing fitness (ln) is at least -1.
Condition not met

Given GGCGAGCAAUAUUACGUGGG , state whether its self-splicing fitness (ln) is at least -1.
Condition not met

Given AAGUAGCAAUAUUACGUAUC , state whether its self-splicing fitness (ln) is at least -1.
Condition not met

Given UGGCAGCAAUAUUACGGAGA , state whether its self-splicing fitness (ln) is at least -1.
Condition not met

Given AUAAAGCAAUAUUACGCCAU , state whether its self-splicing fitness (ln) is at least -1.
Condition met

Given UUCCAGCAAUAUUACGUCCA , state whether its self-splicing fitness (ln) is at least -1.
Condition met

Given AGCCAGCAAUAUUACGGCAG , state whether its self-splicing fitness (ln) is at least -1.
Condition not met

Given GCCGAGCAAUAUUACGUUUG , state whether its self-splicing fitness (ln) is at least -1.
Condition not met

Just for reference, the supplement of paper PMC7877785 is where these values come from.
